Reference source: patent US20240067751A1

Biological target: MASP-2 in human serum (human, UniProt O00187 16-686)
Sequence (O00187 16-686 limits assumed): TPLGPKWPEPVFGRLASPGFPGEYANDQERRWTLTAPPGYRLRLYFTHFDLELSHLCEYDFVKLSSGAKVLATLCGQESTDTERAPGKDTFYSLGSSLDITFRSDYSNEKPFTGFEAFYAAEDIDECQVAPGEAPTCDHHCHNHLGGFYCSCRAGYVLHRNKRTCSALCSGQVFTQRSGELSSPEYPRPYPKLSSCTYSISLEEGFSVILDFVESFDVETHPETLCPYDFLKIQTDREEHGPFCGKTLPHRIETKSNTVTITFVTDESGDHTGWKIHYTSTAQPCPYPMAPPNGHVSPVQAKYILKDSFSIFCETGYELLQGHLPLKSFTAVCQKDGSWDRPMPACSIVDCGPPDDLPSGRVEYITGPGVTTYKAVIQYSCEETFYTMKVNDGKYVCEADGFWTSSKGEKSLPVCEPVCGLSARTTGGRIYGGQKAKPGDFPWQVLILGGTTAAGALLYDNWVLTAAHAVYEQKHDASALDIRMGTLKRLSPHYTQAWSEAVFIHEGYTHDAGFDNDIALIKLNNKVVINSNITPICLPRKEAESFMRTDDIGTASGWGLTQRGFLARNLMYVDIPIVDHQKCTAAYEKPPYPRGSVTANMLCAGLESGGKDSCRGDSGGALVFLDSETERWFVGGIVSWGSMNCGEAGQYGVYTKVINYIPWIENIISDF
Experiment: cell-based or functional assay
measure: IC50, inhibition of C4b deposition (nM)
Expressed in nM, but write only the number.

Would you please look over these solved cases?
>>> assay_value("h28O14 H3K1 (antibody, V domains shown) VH: QVQLVQSGAEVKKPGSSVKVSCKASGYTFRSHTMHWVRQAPGQGLEWMGYINPSTGYINYNQKFQGRVTITADKSTSTAYMELSSLRSEDTAVYYCARSNYAYYYGMDYWGQGTTVTVSS VL: DIQMTQSPSSLSASVGDRVTITCRASQDVNTAVAWYQQKPGKAPKLLIYSASYRYTGVPSRFSGSGSGTDFTLTISSLQPEDFATYYCQQHYNIPLTFGGGTKVEIK")
0.064
>>> assay_value("h3H6 H1K1 (antibody, V domains shown) VH: QVQLVQSGAEVKKPGSSVKVSCKASGYTFATYSIHWVRQAPGQGLEWMGYINPSSGYTNYNQKFQGRVTLTADKSTSTAYMELSSLRSEDTAVYYCARVYYTFYHAMDYWGQGTTVTVSS VL: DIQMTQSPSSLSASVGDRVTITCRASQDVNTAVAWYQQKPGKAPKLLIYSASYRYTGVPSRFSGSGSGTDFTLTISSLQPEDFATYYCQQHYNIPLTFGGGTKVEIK")
0.014
>>> assay_value("h16B11 H2K2 (antibody, V domains shown) VH: QLQLQESGPGLVKPSETLSLTCTVSGYSITSDYAWNWIRQPPGKGLEWIGYISYSGRTSYNPSLKSRVTISRDTSKNQFSLKLSSVTAADTAVYYCARHYGDYWGQGTLVTVSS VL: DIQMTQSPSSLSASVGDRVTITCRASQNVGTNVAWYQQKPGKAPKLLIYSASYRESGVPSRFSGSGSGTDFTLTISSLQPEDFATYFCQQFNTNPLTFGGGTKVEIK")
0.032
>>> assay_value("h16B11 H3K1 (antibody, V domains shown) VH: QLQLQESGPGLVKPSETLSLTCTVSGYSITSDYAWNWIRQPPGKGLEWIGYISYSGRTSYNPSLKSRVTISVDTSKNQFSLKLSSVTAADTAVYYCARHYGDYWGQGTLVTVSS VL: DIQMTQSPSSLSASVGDRVTITCRASQNVGTNVAWYQQKPGKAPKALIYSASYRESGVPSRFSGSGSGTDFTLTISSLQPEDFATYFCQQFNTNPLTFGGGTKVEIK")
0.098

Tell me the measured IC50, inhibition of C4b deposition of h16B11 H2K1 (antibody, V domains shown) VH: QLQLQESGPGLVKPSETLSLTCTVSGYSITSDYAWNWIRQPPGKGLEWIGYISYSGRTSYNPSLKSRVTISRDTSKNQFSLKLSSVTAADTAVYYCARHYGDYWGQGTLVTVSS VL: DIQMTQSPSSLSASVGDRVTITCRASQNVGTNVAWYQQKPGKAPKALIYSASYRESGVPSRFSGSGSGTDFTLTISSLQPEDFATYFCQQFNTNPLTFGGGTKVEIK , please. 0.02

What would you report for h16B11 H1K2 (antibody, V domains shown) VH: QMQLQESGPGLVKPSETLSLTCTVSGYSITSDYAWNWIRQPPGKGLEWIGYISYSGRTSYNPSLKSRVTISRDTSKNQFSLKLSSVTAADTAVYYCARHYGDYWGQGTLVTVSS VL: DIQMTQSPSSLSASVGDRVTITCRASQNVGTNVAWYQQKPGKAPKLLIYSASYRESGVPSRFSGSGSGTDFTLTISSLQPEDFATYFCQQFNTNPLTFGGGTKVEIK ? 0.051

What would you report for h16B11 H3K2 (antibody, V domains shown) VH: QLQLQESGPGLVKPSETLSLTCTVSGYSITSDYAWNWIRQPPGKGLEWIGYISYSGRTSYNPSLKSRVTISVDTSKNQFSLKLSSVTAADTAVYYCARHYGDYWGQGTLVTVSS VL: DIQMTQSPSSLSASVGDRVTITCRASQNVGTNVAWYQQKPGKAPKLLIYSASYRESGVPSRFSGSGSGTDFTLTISSLQPEDFATYFCQQFNTNPLTFGGGTKVEIK ? 1.69
